- target.desc: T1, Human GDF15 Fc (human, UniProt Q99988 195-308, limits assumed, biotinylated (EZ-Link Sulfo-NHS-Biotinylation Kit) in the SPR assay)
- T1 construct: also called human GDF15-Fc fusion; biotinylated Human GDF15 Fc; not shown: Fc part
- T1 sequence: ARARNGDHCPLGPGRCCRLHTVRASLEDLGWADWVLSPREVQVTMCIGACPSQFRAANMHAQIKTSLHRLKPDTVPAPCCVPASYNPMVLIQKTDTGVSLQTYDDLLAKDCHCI
- assay.text: SPR Biacore 8K; biotinylated antigen captured, Fab analyte
quantity: pKd
When answering, recall that pKd equals minus log10 of the concentration in mol/L, and write that number alone.

Example entries begin here.
GDF15 antibody agent Clone N, Fab (Fab, V domains shown, Fab; CH1 and CL of the Fab not specified; also called Fab of Clone N) VH: QVQLVQSGAEVKKPGASVKVSCKASGYTFTDYGIFWVRQAPGQGLEWMGWITAYSGDTHYAQKLQGRVTMTTDTSTSTAYMELRSLRSDDTAVYYCVRDTQYGGSPYWGQGTLVTVSS VL: EIVMTQSPATLSVSPGERATLSCRASQSVSSNLAWYQQKPGQAPRLLIYGASTRATGIPARFSGSGSGTEFTLTISSLQSEDFAVYYCQQYNNWPITFGGGTKVEIK; 9.26
GDF15 antibody agent Clone T, Fab (Fab, V domains shown, Fab; CH1 and CL of the Fab not specified; also called Fab of Clone T) VH: QVQLVQSGAEVKKPGASVKVSCKASGYTFTSYGINWVRQAPGQGLEWMGWITAYSGDTNYAQKLQGRVTMTTDTSTSTAYMELRSLRSDDTAVYYCARGPGQYADVDVWGQGTMVTVSS VL: DIQMTQSPSSVSASVGDRVTITCRASQGISSWLAWYQQKPGKAPKLLIYAASSLQSGVPSRFSGSGSGTDFTLTISSLQPEDFATYYCQQASQFPITFGGGTKVEIK; 10.39

Could you now look at the following binder, please?
Ask: // pKd lookup, key: GDF15 antibody agent Clone K, Fab (Fab, V domains shown, Fab; CH1 and CL of the Fab not specified; also called Fab of Clone K) VH: QVQLVQSGAEVKKPGASVKVSCKASGYTFTNEGISWVRQAPGQGLEWMGWISAYTADTFYAQKLQGRVTMTTDTSTSTAYMELRSLRSDDTAVYYCARTRHDTSGLRFDYWGQGTLVTVSS VL: DIQMTQSPSSVSASVGDRVTITCRASQGIDSWLAWYQQKPGKAPKLLIYAASSLQSGVPSRFSGSGSGTDFTLTISSLQPEDFATYYCQQVHSFPITFGGGTKVEIK
Reply: 9.64
